Tested on: NCI-H460
Test: NCI tumour cell line growth inhibition, 48 h
Active and inactive are the calls of the source. Cut-off read from the data, not from the text of the source: active = GI50 up to about 1.1 µM and inactive = higher.
A correct response names exactly one class from active, inactive

>  <molecule>
NC(CCCC(N)P(=O)(O)O)C(=O)O (stereo not given)

>  <assay system>
NCI-H460

>  <cat>
inactive

$$$$

## Input Field: outcome | Entry: "COC(=O)/C=C\n1ncc(=O)[nH]c1=O"
## Output inactive

## Input Query: recorded result category for "[O-][n+]1c(-c2ccccc2)oc2ccccc21" in this test
## Output inactive

## Input Tell me the recorded outcome of this test for "O=C(/C=C/c1c(O)ccc2ccccc12)c1ccccc1Cl" .
## Output inactive

## Input Give the logged outcome of this assay for the following molecule: "C/C(=N\Nc1nc2ccccc2n1C)c1cc2ccccc2cn1"
## Output active

## Input # lookup: test call for "N#CC1(Nc2ccc(-c3ccc(NC4(C#N)CCCC4)cc3)cc2)CCCC1"
## Output inactive

## Input Test call, this molecule: "COc1cc([N+](=O)[O-])c(S(=O)(=O)[O-])cc1-[n+]1nc(C(=O)Nc2ccccc2)nn1-c1ccc([N+](=O)[O-])c(S(=O)(=O)O)c1"
## Output inactive

----------
System: M19-MEL
Experiment: NCI tumour cell line growth inhibition, 48 h
The source made the active and inactive calls. No stated cut-off is given here; in the data, active = GI50 up to about 1.1 µM and inactive = higher.
recorded metric: GI50

Before answering, review these 3 worked examples.
>  <compound>
COC(=O)c1nc(NN)cc(O)c1CCCCCc1c(O)nc(NN)nc1C(=O)OC

>  <GI50>
> 100 µM (inactive)

$$$$
>  <compound>
O=C(O)CCNS(=O)(=O)c1ccc(NC(=O)c2ccccc2)cc1

>  <GI50>
> 100 µM (inactive)

$$$$
>  <compound>
O=C(O)COc1ccc(C(=O)/C(SS/C(C(=O)c2ccc(OCC(=O)O)c(Cl)c2Cl)=C2\C=C(c3ccc(F)cc3)SS2)=C2/C=C(c3ccc(F)cc3)SS2)c(Cl)c1Cl

>  <GI50>
13.2 µM (inactive)

$$$$

The compound listed as CCOC(=O)NC(=O)c1cn(C(CC)COC(=O)NCCCCCCNC(=O)OCC(CC)n2cc(C(=O)NC(=O)OCC)c(=O)[nH]c2=O)c(=O)[nH]c1=O (centres undefined) has a reported GI50 of > 100 µM (inactive)

----------
# GI50 per entry
System: UACC-62
Assay: NCI tumour cell line growth inhibition, 48 h
Active and inactive are the calls of the source. Rule as the data show it: active = GI50 up to about 1.1 µM and inactive = higher.

Previously resolved entries follow.
>  <molecule>
CN(C)CCNC(=O)c1cccc2c(=O)c3ccccc3oc12

>  <reading>
32.2 µM (inactive)

$$$$
>  <molecule>
O=P1(N(CCCl)CCCl)Oc2c(Cl)cc(Cl)c(Cl)c2Cc2c(Cl)c(Cl)cc(Cl)c2O1

>  <reading>
48.3 µM (inactive)

$$$$
>  <molecule>
COc1ccc2c(c1)[n+]([O-])c(C(=O)C/C(=N/NC(=O)c1ccccc1O)C(=O)Nc1ccc(Cl)c(C(F)(F)F)c1)c(C)[n+]2[O-]

>  <reading>
> 100 µM (inactive)

$$$$

Consider "ClC1=NSSC1(Cl)Cl" . Its measured GI50 is 45.7 µM (inactive)

The measured GI50 associated with CN1C(=O)CC2(C)c3cc(O)cc(Br)c3N(C)C12 (stereo not given) reads 81.5 µM (inactive)

----------
GI50 values, listed per item
Tested on: K562
Assay: NCI tumour cell line growth inhibition, 48 h
Calls of active or inactive are those of the source. No stated cut-off is given here; in the data, active = GI50 up to about 1.1 µM and inactive = higher.

>  <molecule>
COC(=O)C1(Cc2ccccc2)Cc2ccccc2C1

>  <GI50>
15.8 µM (inactive)

$$$$

Kindly note the recorded GI50 for "COC(=O)/C=C(\S/C(=C(/c1ccc(OC)cc1)n1cc(C(=O)OC)c(C(=O)OC)n1)c1ccc(OC)cc1)C(=O)OC" , which is 6.5 µM (inactive)

The reported GI50 of the molecule CN(C)CC1COC2Cc3ccccc3C1O2 (configuration not stated) was > 100 µM (inactive)

Record "Brc1ccc2c(c1)[C@H]1CCc3c([nH]c4ccccc34)[C@H]1N2" . Reported GI50: 4.85 µM (inactive)

Looking up CC1=C(C#N)C2C(=C(N)Oc3ccccc32)C(N)=N1 (configuration not stated) , I found its GI50 recorded as 29.7 µM (inactive)

Short answer for "CN(CC(=O)O)S(=O)(=O)c1ccc2ccccc2c1" : GI50 was > 100 µM (inactive)

Lab note: "CCOc1ccc(/N=C/C=C(\Cl)c2ccc3ccccc3c2)cc1" gave GI50 of 8.55 µM (inactive)

The reported GI50 of the molecule O=C(O)C(/C=C/c1ccccc1)c1ccccc1 (configuration not stated) was 84.3 µM (inactive)
